Biological target: kinases (Homo sapiens, UniProt P00519, Q252H)
Construct: purchased Eurofins/DiscoveRx; host or cells: E. coli BL21-derived host (T7 phage display) for most kinases; HEK-293 for the rest
Assay: KINOMEscan kinase binding assay (Eurofins/DiscoveRx), % Ctrl
Conditions: 1 μM; target ABL1(Q252H)-nonphosphorylated
% Ctrl, ABL1(Q252H)-nonphosphorylated for assorted compounds
measured_quantity: % Ctrl, ABL1(Q252H)-nonphosphorylated

smiles_notation | assayed_system | result
Cc1cc2c([nH]1)/C=C1\C(=O)Nc3cnc(cc31)-c1cnn(C)c1CN(C)CCN(C)C2=O | kinases (Homo sapiens, UniProt P00519, Q252H) | 0.3 % Ctrl
Cc1cc2c([nH]1)/C=C1\C(=O)Nc3ccc(cc31)-c1c(noc1C(C)C)COCCN(C)C2=O | kinases (Homo sapiens, UniProt P00519, Q252H) | 100 % Ctrl
CN1CCOc2cc3c(cc2Cl)NC(=O)/C3=C\c2[nH]ccc2C(=O)N(C)CC1 | kinases (Homo sapiens, UniProt P00519, Q252H) | 0.1 % Ctrl
Cc1cc2c([nH]1)/C=C1\C(=O)Nc3ccc(cc31)-c1cnn(C)c1OCCCN(C)C2=O | kinases (Homo sapiens, UniProt P00519, Q252H) | 2.6 % Ctrl
Cc1cc2c([nH]1)/C=C1\C(=O)Nc3cc(Cl)c(cc31)SCCOCCN(C)C2=O | kinases (Homo sapiens, UniProt P00519, Q252H) | 0 % Ctrl

###

Target: kinases (Homo sapiens, UniProt P00519, Y253F)
Construct: purchased Eurofins/DiscoveRx; host or cells: E. coli BL21-derived host (T7 phage display) for most kinases; HEK-293 for the rest
Assay: KINOMEscan kinase binding assay (Eurofins/DiscoveRx), % Ctrl
Conditions: 1 μM; ABL1(Y253F)-phosphorylated
Experimental: Kinase binding assays were performed at Eurofins/DiscoveRx using the general KINOMEscan Protocol (Fabian, M. A. et al., “A small molecule-kinase interaction map for clinical kinase inhibitors,” Nat. Biotechnol. 2005, 23(3):329-36). For most assays, kinase-tagged T7 phage strains were prepared in an E. coli host derived from the BL21 strain. […] The kinase concentration in the eluates was measured by qPCR. […]
Overview of recorded % Ctrl, ABL1(Y253F)-phosphorylated for various compounds
measured_quantity: % Ctrl, ABL1(Y253F)-phosphorylated (% Ctrl)

smiles_notation | measured_quantity | result_number
Cc1cc2c([nH]1)/C=C1\C(=O)Nc3cc(Cl)c(cc31)OCCO[C@@H](C(=O)N(C)C)CN(C)C2=O | % Ctrl, ABL1(Y253F)-phosphorylated | 60
Cc1cc2c([nH]1)/C=C1\C(=O)Nc3ccc(cc31)OCCOCCN(C)C2=O | % Ctrl, ABL1(Y253F)-phosphorylated | 7.8
Cc1cc2c([nH]1)/C=C1\C(=O)Nc3ccc(cc31)-c1cnn(C)c1COCCN(C)C2=O | % Ctrl, ABL1(Y253F)-phosphorylated | 0
Cc1cc2c([nH]1)/C=C1\C(=O)Nc3ccc(cc31)-c1ccnn1CCOCCN(C)C2=O | % Ctrl, ABL1(Y253F)-phosphorylated | 49

###

Biological target: kinases (Homo sapiens, UniProt P00519, F317I)
Construct: purchased Eurofins/DiscoveRx; host or cells: E. coli BL21-derived host (T7 phage display) for most kinases; HEK-293 for the rest
Assay: KINOMEscan kinase binding assay (Eurofins/DiscoveRx), % Ctrl
Details: 1 μM; ABL1(F317I)-nonphosphorylated
molecules and their reported % Ctrl, ABL1(F317I)-nonphosphorylated
measured_quantity: % Ctrl, ABL1(F317I)-nonphosphorylated (% Ctrl)

smiles_notation | measured_quantity | result_number
Cc1cc2c([nH]1)/C=C1\C(=O)Nc3cc(Cl)c(cc31)OCCO[C@@H](C(=O)N[C@@H]1CCNC1)CN(C)C2=O | % Ctrl, ABL1(F317I)-nonphosphorylated | 78
Cc1cc2c([nH]1)/C=C1\C(=O)Nc3ccc(cc31)CN(C)C(=O)COCCNC2=O | % Ctrl, ABL1(F317I)-nonphosphorylated | 89
CNC(=O)[C@H]1CN(C)C(=O)c2cc(C)[nH]c2/C=C2\C(=O)Nc3cc(Cl)c(cc32)OCCO1 | % Ctrl, ABL1(F317I)-nonphosphorylated | 96
Cc1cc2c([nH]1)/C=C1\C(=O)Nc3cnc(nc31)N(C)CCCOCCN(C)C2=O | % Ctrl, ABL1(F317I)-nonphosphorylated | 100
Cc1cc2c([nH]1)/C=C1\C(=O)Nc3ccc(nc31)-c1ccccc1OCCCNC2=O | % Ctrl, ABL1(F317I)-nonphosphorylated | 88
Cc1cc2c([nH]1)/C=C1\C(=O)Nc3ccc(cc31)-c1c(noc1C)COCCN(C)C2=O | % Ctrl, ABL1(F317I)-nonphosphorylated | 100
Cc1cc2c([nH]1)/C=C1\C(=O)Nc3ccc(cc31)-c1ccnn1CCOCCN(C)C2=O | % Ctrl, ABL1(F317I)-nonphosphorylated | 54
Cc1cc2c([nH]1)/C=C1\C(=O)Nc3ccc(cc31)-c1ccnn1CCOCCNC2=O | % Ctrl, ABL1(F317I)-nonphosphorylated | 100
